assay.target: EPHB2 (UniProt P29323)
Sequence (P29323 whole entry, looked up): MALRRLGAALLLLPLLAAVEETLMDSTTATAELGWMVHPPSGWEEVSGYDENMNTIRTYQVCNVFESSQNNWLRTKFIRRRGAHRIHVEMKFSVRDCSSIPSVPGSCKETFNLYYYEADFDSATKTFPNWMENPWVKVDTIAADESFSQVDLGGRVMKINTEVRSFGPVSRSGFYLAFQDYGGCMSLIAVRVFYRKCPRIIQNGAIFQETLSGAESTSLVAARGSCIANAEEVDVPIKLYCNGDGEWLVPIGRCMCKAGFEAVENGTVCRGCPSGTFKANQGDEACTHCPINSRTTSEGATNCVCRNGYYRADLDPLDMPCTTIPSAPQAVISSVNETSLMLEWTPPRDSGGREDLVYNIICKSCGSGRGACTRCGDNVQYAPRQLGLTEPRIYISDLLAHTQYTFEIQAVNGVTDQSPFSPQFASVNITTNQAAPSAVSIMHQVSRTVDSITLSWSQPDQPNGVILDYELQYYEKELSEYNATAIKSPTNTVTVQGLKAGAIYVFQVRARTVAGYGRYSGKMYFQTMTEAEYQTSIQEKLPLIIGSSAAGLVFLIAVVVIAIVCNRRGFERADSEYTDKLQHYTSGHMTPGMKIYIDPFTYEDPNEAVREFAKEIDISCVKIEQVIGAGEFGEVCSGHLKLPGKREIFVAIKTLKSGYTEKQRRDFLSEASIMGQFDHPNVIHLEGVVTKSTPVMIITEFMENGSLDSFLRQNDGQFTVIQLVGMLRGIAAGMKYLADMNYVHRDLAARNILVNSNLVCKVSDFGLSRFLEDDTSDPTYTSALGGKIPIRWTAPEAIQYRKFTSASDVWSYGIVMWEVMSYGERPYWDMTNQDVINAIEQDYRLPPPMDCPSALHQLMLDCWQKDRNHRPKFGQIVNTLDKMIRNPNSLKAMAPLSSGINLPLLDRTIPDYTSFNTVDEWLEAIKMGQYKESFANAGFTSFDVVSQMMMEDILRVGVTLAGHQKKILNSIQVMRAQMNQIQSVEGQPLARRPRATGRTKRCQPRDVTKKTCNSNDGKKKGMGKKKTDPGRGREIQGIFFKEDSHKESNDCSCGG
method.notes: phosphorylation enrichment, bacterial display (enrichment ratio); higher = better substrate or ligand; peptides without Tyr show the background;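 note: 11-residue human phosphosite peptides and single-mutation variants displayed on the E. coli surface, counted by deep sequencing, each peptide's frequency after selection divided by its frequency in the unselected input library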;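 note: frequency after pTyr selection over input frequency; kinase dosed for 20-30% of maximal phosphorylation in three min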
recorded.endpoint: phosphorylation enrichment

>>> df
                biopolymer_sequence            assay_target  number
0      YGSGNYNDFGN [HNRNPA2B1_Y300]  EPHB2 (UniProt P29323)    1.01
1      ALAPKYHGGGG [HBB_Y146_H144P]  EPHB2 (UniProt P29323)   0.356
2      EFKKKYSDADI [CKAP5_Y1860_YF]  EPHB2 (UniProt P29323)   0.565
3    QADVTYVNTQL [MERTK_Y872_I871T]  EPHB2 (UniProt P29323)   0.584
4  RKLASYQSCLL [DHX37_Y1080_R1081Q]  EPHB2 (UniProt P29323)   0.799
5   LLQKTYNYNVL [SLC4A1_Y553_P548L]  EPHB2 (UniProt P29323)     1.7
6     MICSAYALGGL [CPS1_Y590_R587C]  EPHB2 (UniProt P29323)   0.601

Data origin: the supplement of paper PMC10065799
